Target: T1, rat GLP-1 receptor (rat, UniProt P32301 22-463)
T1 sequence (looked up): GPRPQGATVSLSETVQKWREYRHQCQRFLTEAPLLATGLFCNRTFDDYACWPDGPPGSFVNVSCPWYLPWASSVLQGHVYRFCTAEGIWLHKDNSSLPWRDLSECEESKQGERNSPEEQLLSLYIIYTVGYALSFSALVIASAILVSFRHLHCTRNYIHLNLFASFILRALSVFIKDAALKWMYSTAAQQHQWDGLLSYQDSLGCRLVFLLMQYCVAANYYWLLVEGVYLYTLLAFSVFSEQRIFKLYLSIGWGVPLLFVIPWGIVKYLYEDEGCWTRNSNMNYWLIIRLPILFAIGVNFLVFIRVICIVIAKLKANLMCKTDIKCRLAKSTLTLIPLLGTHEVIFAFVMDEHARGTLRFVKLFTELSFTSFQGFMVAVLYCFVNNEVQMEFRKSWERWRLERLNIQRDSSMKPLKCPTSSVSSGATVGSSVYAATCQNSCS
Assay: cell-based or functional assay
quantity: cAMP EC50, Batch 2 (nM)
Kindly answer with a numeric value in nM, unit omitted.

Worked cases, cAMP EC50, Batch 2 given:
| binder | cAMP EC50, Batch 2, nM |
| --- | --- |
| IP149 (Fc fusion) YSQGTFTSDYSKLLEEEAVRLFIEWLVKGPAPPGGSGSTASSGSGSATGGGGAATHTCPPCPAPEF | 0.031 |
| IP295 (Fc fusion) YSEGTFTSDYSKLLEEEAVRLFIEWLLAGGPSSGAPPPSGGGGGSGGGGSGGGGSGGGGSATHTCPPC | 0.018 |
| IP292 (Fc fusion) YSEGTFTSDYSKLLEEEAVRCFIEWLVKGGPGGGAPPCGGGGGGGGGGGGGGGGGGGACPPC | 0.0432 |

Form field: reported cAMP EC50, Batch 2 of IP325 (Fc fusion) YSEGTFTSDYSKLLEEEAVRLFIEWLVKGPGGGGGSGGGGSGGGGSGGGGSGGGGSGGGGSGGGGSGGGGSA 0.0519
